Entries and their measured z-score follow.
# Test Summary: ATP-based viability of Huh7 replicon cells – cell-based, CellTiter-Glo luminescence, basal, 48 h, cytotoxicity control for HCV replication inhibitor project, primary screen (AID 1143);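 also: Huh7 hepatoma cells carrying a hepatitis C replication reporter with no stimulus; test concentration not given here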
# Study Conditions: higher = more signal, called active from +8 up or from −8 down
Lab note: record the figure alone, no unit after it.

Compound	Readout Type	Assay Value
CC(C)(C)OC(=O)CC[C@]1(C(=O)NCCN2CCOCC2)COC(c2ccc(OCCCO)cc2)=N1	z-score	-0.102
O=C(O)[C@H]1C[C@H]2C(=O)N3CCC[C@H]3C(=O)N2[C@H]1c1ccc(O)cc1	z-score	-0.44
Cc1ccc([C@H]2C(C(=O)O)=CCN2S(=O)(=O)c2ccc(C)cc2)cc1	z-score	-0.849
CCCC1(C(=O)OC)C=C2C(=C(c3ccccc3)C(=O)C2C)CN1 (stereo not drawn)	z-score	-0.752
COc1ccc(C(=O)Nc2ccc(CN3C(=O)[C@]4(O[C@H](CC(=O)N5CCC[C@H]5CO)[C@@H]([Si](C)(C)c5ccc(OC)cc5)[C@@H]4C)c4ccccc43)cc2)cc1	z-score	-4.81

Request: Any idea what z-score was measured for COc1ccc(CCNC(=O)[C@@]2(C)c3ccccc3C(=O)N(c3ccc(C)cn3)[C@H]2c2ccc(CO)cc2)cc1 ?
Response: -0.998

Request: # lookup: z-score of COC(=O)[C@@]1(Cc2ccc(OC)cc2)[C@H]2c3cc(C(=O)N4CCCC4)n(CCc4ccc(O)c(O)c4)c3C[C@H]2CN1C(=O)c1ccccc1
Response: -1.27

Request: Any idea what its z-score is? The compound is CC(C)[C@@H](C(=O)O)n1cc(C2(O)CCCCC2)nn1
Response: -0.671

====

# Test Target: Neurogenic locus notch homolog protein 2 (Homo sapiens)
# Test Summary: small molecules binding Notch2 protein – biochemical, small-molecule microarray, 635 nm fluorescence, stem cell growth factors, primary screen (AID 1073)
# Study Conditions: higher = more signal
Readout Type: composite z-score
Note: the reply should be a number with no unit written.

Request: Param item = COc1ccc(C#Cc2ccc3c(c2)[C@]2(C(=O)N3)[C@H](c3ccc(O)cc3)N3[C@H](c4ccccc4)[C@H](c4ccccc4)OC(=O)[C@H]3[C@@H]2C(=O)N2CCc3cc(OC)c(OC)cc3C2)cc1 ; retrieve measured composite z-score.
Response: 0.84

Request: Need composite z-score, item Cc1ccc(S[C@]2(C(=O)NCC(C)C)CC(=O)N(Cc3cc(C(F)(F)F)cc(C(F)(F)F)c3)[C@@H]2c2ccc(CO)cc2)cc1
Response: -0.598

Request: What value of measured composite z-score is listed for COC(=O)c1c(CC[C@@H](CO)NC(=O)N[C@H](Cc2ccccc2)Cn2cc(-c3ccccn3)nn2)oc(C(C)=O)c1C(=O)OC ?
Response: -0.143

Request: composite z-score lookup needed for NC(=O)NCC#Cc1ccc2c(c1)[C@]1(C(=O)N2)[C@H](C(=O)O)[C@H]2C(=O)O[C@H](c3ccccc3)[C@H](c3ccccc3)N2[C@@H]1c1ccc(O)cc1 , thanks.
Response: 0.053

Request: Endpoint output: composite z-score of C[C@H]1C2[C@H](Cc3ccccc3)NC(=O)[C@]23C(=O)NCC(=O)N2CCC[C@H]2C(=O)NC/C=C/CCC/C=C/C3[C@@H]2O[C@]12C (stereo partly specified) . Value?
Response: -0.754

Request: composite z-score for COc1ccc([C@H]2C[C@H]3C(I)=C[C@@H]2C(=O)[C@]32CO2)cc1 ?
Response: 0.0021
